What IC50 was measured for each of the following?
System: MCF7
Assay: Cytotoxicity against human MCF7 cells after 48 hrs by MTT assay
Assay type: functional, cell-based
Conditions: MCF7, 48 h
One number for each entry, in nM.

Examples from the recorded data:
CCOC(=O)[C@@]1(c2cc(C)ccc2N)SC[C@H]2C(=O)N3CCC[C@H]3C(=O)N21 ... 1600
CCOC(=O)[C@@]1(c2ccccc2N)SC[C@H]2C(=O)N3CCC[C@H]3C(=O)N21 ... 14800

Next:
stdin: Please report IC50 for the following molecule: CCOC(=O)[C@@]1(c2cc(Br)ccc2N)SC[C@H]2C(=O)N3CCC[C@H]3C(=O)N21
stdout: 2200

Source of measurements: ChEMBL document CHEMBL1165964
